tested on: TFPI; assay: IC50 ELISA | Mean IC50 [nM]
Record form. Attribute: IC50. Fill in for each entry.
Express it in nM; write the number only.

## Task Retrieve IC50 measured for Ac-FQSKGNVFVDGYFERL-Aib-AKLC(PEG)-NH2 [JBT00001855] and print it.
## Result 121

## Task Retrieve IC50 measured for Ac-FQSK-Nmg-NVFVTGYFERL-Aib-AKL-NH2 [JBT00001585] and print it.
## Result 15.1

* * *

test system: Tissue Factor Pathway Inhibitor (TFPI); assay: IC50 ELISA | Mean IC50 [nM]
observable: pIC50
By convention, pIC50 is the negative base-10 log of a molar concentration.

## Task Retrieve pIC50 measured for FAM-Ttds-FQSK-Nmg-NVFVDGYFERL-Aib-AKL-NH2 [JBT00002262] and print it.
## Result 7.87
